subject of test: 5-HT transporter (Rattus norvegicus, UniProt P31652)
Construct: these vesicular particles were isolated from the pons and medulla oblongata region of the male rat brain; from tissue; host or cells: rat brain synaptosomes (P2 fraction) from the pons and medulla oblongata of male rats
Sequence (P31652 whole entry): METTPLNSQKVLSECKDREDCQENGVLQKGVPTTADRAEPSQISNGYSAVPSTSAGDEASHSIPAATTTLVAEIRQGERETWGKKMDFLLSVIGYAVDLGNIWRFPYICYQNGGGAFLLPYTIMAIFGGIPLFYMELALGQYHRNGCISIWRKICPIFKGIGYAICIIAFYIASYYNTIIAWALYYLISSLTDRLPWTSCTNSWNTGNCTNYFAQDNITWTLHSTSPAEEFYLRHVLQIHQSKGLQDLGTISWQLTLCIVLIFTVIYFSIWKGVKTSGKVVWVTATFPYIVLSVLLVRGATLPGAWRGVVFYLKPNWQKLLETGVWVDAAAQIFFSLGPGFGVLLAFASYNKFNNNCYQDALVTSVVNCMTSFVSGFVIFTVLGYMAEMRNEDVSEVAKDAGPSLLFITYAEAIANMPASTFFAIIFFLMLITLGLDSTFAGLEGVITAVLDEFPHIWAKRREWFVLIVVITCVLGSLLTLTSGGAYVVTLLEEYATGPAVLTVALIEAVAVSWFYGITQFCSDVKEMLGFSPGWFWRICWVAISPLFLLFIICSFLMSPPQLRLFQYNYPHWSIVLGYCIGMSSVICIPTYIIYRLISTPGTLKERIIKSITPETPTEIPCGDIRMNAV
experimental protocol: Inhibition of serotonin re-uptake (5-HT uptake inhibition) in rat brain synaptosomes
Format: biochemical
Set-up: concentration or dose not given beside the values
condition label: synaptosomes (P2 fraction) from pons and medulla oblongata region of male rat brain; means from 2 parallel experiments
property: Inhibition of 5HT uptake in % (%)
// note: answer is a bare numeric in %

Answer with reported Inhibition of 5HT uptake in % of NC(=S)c1ccccc1-n1cccc1C(c1cc(Br)ccc1F)N1CCCC1 (stereo not shown) 41

Consider the molecule OCCn1cccc1C(c1cccc(Oc2ccccc2)c1)N1CCCCC1 (stereo not shown) and give its recorded Inhibition of 5HT uptake in %. 48

Please report Inhibition of 5HT uptake in % for the following molecule: Fc1ccc(-n2cccc2C(c2ccc(F)c(Br)c2)N2CCCC2)cc1 (stereo not shown) 37

State, in one line, measured Inhibition of 5HT uptake in % of Cn1cccc1C(c1ccc(F)cc1)N1CCCCC1 (stereo not shown) 42

In one line, give reported Inhibition of 5HT uptake in % of the entry Brc1ccc(C(c2cccn2-c2ccccc2)N2CCCC2)cc1 (stereo not shown) . 57

// Input: Cc1cccc(C(c2cccn2-c2ccccc2N)N2CCCCC2)c1 (stereo not shown) . Output its Inhibition of 5HT uptake in % only. 59

Provide one value: measured Inhibition of 5HT uptake in % of Fc1ccc(C(c2cccn2Cc2ccccn2)N2CCCC2)cc1Br (stereo not shown) 63

Using known records, supply Inhibition of 5HT uptake in % for Cn1cccc1C(c1ccc(C(F)(F)F)cc1)N1CCCCC1 (stereo not shown) 55

Give a short answer stating reported Inhibition of 5HT uptake in % for Fc1cccc(Cl)c1C(c1cccn1Cc1ccccn1)N1CCCC1 (stereo not shown) . 39

Specify measured Inhibition of 5HT uptake in % for N#Cc1ccc(C(c2cccn2Cc2ccccn2)N2CCCC2)cc1 (stereo not shown) . 45

This collection of values is drawn from patent US7034018B2.
